- assay summary: recombinant barcode read abundance after kanamycin selection (control-corrected) (log10(CPM+1)); higher = more efficient recombination; sequences stand for … in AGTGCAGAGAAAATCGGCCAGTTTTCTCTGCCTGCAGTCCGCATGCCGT…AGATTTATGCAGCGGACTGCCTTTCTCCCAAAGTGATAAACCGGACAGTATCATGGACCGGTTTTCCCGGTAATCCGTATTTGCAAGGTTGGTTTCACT; site = the 11-nt target;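 further: IS621 recombinase and bridge RNA in Escherichia coli cells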
1 means recorded recombinant barcode read abundance (log10) is 0.2 or above; -1 means it is below 0.2.

ordered residues: GTCACAACTTGGGTTCTAACCTGTTGCCG (site GTCACAACTCG)
qualitative label: 1

Assess whether reported recombinant barcode read abundance (log10) for TACTGATCTTGGGTTCTAACCTGTTGCCT (site TAATGATCTAG) sits at 0.2 or higher.
-1

Assess whether reported recombinant barcode read abundance (log10) for TCGGAGTCTTGGGTTCTAACCTGTTGCTG (site TCGGAGTCTCG) sits at 0.2 or higher.
1

Assess whether reported recombinant barcode read abundance (log10) for AATTAGACTTGGGTTCTAACCTGTTGCCT (site GATTAGACTAG) sits at 0.2 or higher.
1

Assess whether reported recombinant barcode read abundance (log10) for CACTCTGCTTGGGTTCTAACCTGTTGCCT (site CACTCTGCTAG) sits at 0.2 or higher.
1

Assess whether reported recombinant barcode read abundance (log10) for CTGCATACTTGGGTTCTAACCTGTTGCCT (site CCGCATACTAG) sits at 0.2 or higher.
1
